Target: D2 receptors from human (Homo sapiens, UniProt P14416)
Construct: expressed in transfected cells; host or cells: COS cells
Sequence (P14416 whole entry): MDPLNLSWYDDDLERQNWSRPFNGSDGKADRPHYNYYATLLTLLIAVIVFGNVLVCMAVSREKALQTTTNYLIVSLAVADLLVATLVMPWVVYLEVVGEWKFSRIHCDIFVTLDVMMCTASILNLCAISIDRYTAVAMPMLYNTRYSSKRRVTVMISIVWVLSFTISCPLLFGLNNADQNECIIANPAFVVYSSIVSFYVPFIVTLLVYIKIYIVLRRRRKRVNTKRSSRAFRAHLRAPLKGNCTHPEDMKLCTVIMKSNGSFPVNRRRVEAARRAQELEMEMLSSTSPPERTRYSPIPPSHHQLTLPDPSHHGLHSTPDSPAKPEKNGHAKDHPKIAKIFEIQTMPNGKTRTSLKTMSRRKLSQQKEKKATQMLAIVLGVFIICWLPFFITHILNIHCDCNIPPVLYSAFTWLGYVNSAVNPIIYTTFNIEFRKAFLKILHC
Experiment: D2 receptor binding assay (3H-YM 09151-2 displacement)
Conditions: recombinant human receptor in COS cells, 0.5 nM 3H-YM 09151-2; read-out: D2 Ki
Structures can show the parent of a compound that is named as a salt.
endpoint: Ki (nM)

compound | observed-measurement
COc1cccc(CN2CCN(c3ccc4c(c3)OCCO4)CC2)c1 [Compound 2, oxalate] | 2590

###

Biological target: D4 receptors from human (Homo sapiens)
Construct: expressed in transfected cells; host or cells: COS cells
Sequence (P21917 whole entry): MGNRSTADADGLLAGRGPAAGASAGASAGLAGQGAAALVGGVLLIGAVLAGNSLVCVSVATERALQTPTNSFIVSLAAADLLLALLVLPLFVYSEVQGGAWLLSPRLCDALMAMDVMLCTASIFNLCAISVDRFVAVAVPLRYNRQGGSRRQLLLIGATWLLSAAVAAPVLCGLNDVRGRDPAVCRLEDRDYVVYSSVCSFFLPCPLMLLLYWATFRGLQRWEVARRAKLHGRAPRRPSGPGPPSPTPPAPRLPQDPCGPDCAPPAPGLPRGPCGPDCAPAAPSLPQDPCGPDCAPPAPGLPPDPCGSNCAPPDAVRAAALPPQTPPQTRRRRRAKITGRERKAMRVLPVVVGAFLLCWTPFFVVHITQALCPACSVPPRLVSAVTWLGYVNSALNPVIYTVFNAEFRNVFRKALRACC
Assay: D4 receptor binding assay (3H-YM 09151-2 displacement)
Conditions: recombinant human receptor in COS cells, 0.5 nM 3H-YM 09151-2; read-out: D4 Ki
pKi: −log10 of the molar value. Where a name gives a salt, the structure may show the parent alone.
endpoint: pKi

molecule | observed-measurement
COc1cccc(CN2CCN(c3ccc4c(c3)OCCO4)CC2)c1 [Compound 2, oxalate] | 7.43

###

Biological target: D2 receptors from human (Homo sapiens, UniProt P14416)
Construct: expressed in transfected cells; host or cells: COS cells
Assay: D2 receptor binding assay (3H-YM 09151-2 displacement)
Structures can show the parent of a compound that is named as a salt.

compound | Ki
Clc1ccc(CN2CCN(c3ccc4c(c3)OCCO4)CC2)cc1 [Compound 3, oxalate] | > 4 µM
Fc1ccc(CN2CCN(c3ccc4c(c3)OCCO4)CC2)cc1 [Compound 1, Oxalate] | > 4 µM

###

Molecular target: D3 receptors from human (Homo sapiens, UniProt P35462)
Construct: expressed in transfected cells; host or cells: COS cells
Sequence (P35462 whole entry): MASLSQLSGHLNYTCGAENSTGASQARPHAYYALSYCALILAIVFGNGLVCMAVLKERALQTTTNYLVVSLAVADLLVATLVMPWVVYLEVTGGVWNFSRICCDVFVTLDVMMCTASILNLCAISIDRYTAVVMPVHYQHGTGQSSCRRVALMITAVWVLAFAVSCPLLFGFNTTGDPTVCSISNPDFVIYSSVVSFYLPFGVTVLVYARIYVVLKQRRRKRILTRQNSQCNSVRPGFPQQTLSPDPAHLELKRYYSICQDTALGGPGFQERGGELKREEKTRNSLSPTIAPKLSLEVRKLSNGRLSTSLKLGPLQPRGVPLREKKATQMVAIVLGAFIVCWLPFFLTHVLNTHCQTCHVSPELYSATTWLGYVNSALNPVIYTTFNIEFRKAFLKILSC
Assay: D3 receptor binding assay (3H-YM 09151-2 displacement)
Conditions: recombinant human receptor in COS cells, 0.5 nM 3H-YM 09151-2; read-out: D3 Ki
pKi: −log10 of the molar value. Where a name gives a salt, the structure may show the parent alone.
endpoint: pKi

compound | target-entity | endpoint | observed-measurement
COc1cccc(CN2CCN(c3ccc4c(c3)OCCO4)CC2)c1 [Compound 2, oxalate] | D3 receptors from human (Homo sapiens, UniProt P35462) | pKi | 5.59

###

// reported melting point for each item listed
Where a name gives a salt, the structure may show the parent alone.

compound | melting point
COc1cccc(CN2CCN(c3ccc4c(c3)OCCO4)CC2)c1 (as salt: oxalate) | 213 to 215 °C
COc1ccc(CN2CCN(c3ccc4c(c3)OCCO4)CC2)cc1.O=C(O)C(=O)O | 193 to 195 °C
Clc1cccc(CN2CCN(c3ccc4c(c3)OCCO4)CC2)c1.O=C(O)C(=O)O | 213 to 215 °C
Cl.c1ccc(CN2CCN(c3ccc4c(c3)OCCO4)CC2)cc1 | 143 to 145 °C
COc1ccccc1CN1CCN(c2ccc3c(c2)OCCO3)CC1.O=C(O)C(=O)O | 143 °C
Cc1ccc(CN2CCN(c3ccc4c(c3)OCCO4)CC2)cc1.O=C(O)C(=O)O | 200 to 201 °C
Clc1ccccc1CN1CCN(c2ccc3c(c2)OCCO3)CC1.O=C(O)C(=O)O | 175 °C
Clc1ccc(CN2CCN(c3ccc4c(c3)OCCO4)CC2)cc1 (as salt: oxalate) | 213 to 215 °C
